The measured values listed here are drawn from patent US7655670B2.

TESTED_SYSTEM: ORL-1 receptor (Homo sapiens)
Construct: expressed in transfected cells; host or cells: HEK-293 over-expressing ORL-1 and Gqi5
Sequence (P41146 whole entry): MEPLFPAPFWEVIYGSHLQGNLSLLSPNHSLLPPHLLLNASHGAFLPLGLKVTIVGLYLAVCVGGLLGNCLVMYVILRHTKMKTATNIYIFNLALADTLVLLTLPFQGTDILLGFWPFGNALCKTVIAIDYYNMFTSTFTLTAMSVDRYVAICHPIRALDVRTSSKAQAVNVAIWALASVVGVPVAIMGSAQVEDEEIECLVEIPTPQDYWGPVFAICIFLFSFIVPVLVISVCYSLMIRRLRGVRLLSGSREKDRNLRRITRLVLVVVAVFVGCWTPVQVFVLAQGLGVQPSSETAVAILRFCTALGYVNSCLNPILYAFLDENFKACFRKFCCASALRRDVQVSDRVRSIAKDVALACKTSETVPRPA
ASSAY_DETAILS: ORL-1 functional assay (calcium flux, FLIPR)
Type: cell-based
Parameters: key: a notation of “no” indicates that the compound did not act as an inhibitor; a notation of “yes” indicates that the compound acted as an inhibitor; a notation of “undetermined” indicates that the data did not clearly show whether or not the compound acted as an antagonist
CONDITION_PARAMETERS: HEK-293 cells over-expressing ORL-1 receptor and Gqi5 G protein, calcium flux
ASSAY_READOUT: Inhibitor

- O=C1N(CC2CO2)c2ccccc2C12CCN(CC1CCCCCCC1)CC2 (centres unmarked) [Compound 60]: no
- Cc1cccc2c1C1(CCN(CC3CCCCCCC3)CC1)C(=O)N2C [Compound 59]: yes
- O=C1Nc2ccccc2C12CCN(CC1CCCCCCC1)CC2 [Compound 18]: yes
- Cc1ccc2c(c1)C1(CCN(CC3CCCCCCC3)CC1)C(=O)N2C [Compound 57]: no

---

TESTED_SYSTEM: Kappa (κ) opioid receptor (Homo sapiens)
ASSAY_DETAILS: Filtration binding assay, kappa opioid receptor (U69593-H3 ligand)
pIC50: −log10 of the molar value.
ASSAY_READOUT: pIC50

## Task Requested field: pIC50. Item: "O=C(O)CN1C(=O)C2(CCN(CC3CCCCCCC3)CC2)c2ccccc21"
## Result < 5.00

---

TESTED_SYSTEM: Kappa (κ) opioid receptor (Homo sapiens, UniProt P41145)
Sequence (P41145 whole entry): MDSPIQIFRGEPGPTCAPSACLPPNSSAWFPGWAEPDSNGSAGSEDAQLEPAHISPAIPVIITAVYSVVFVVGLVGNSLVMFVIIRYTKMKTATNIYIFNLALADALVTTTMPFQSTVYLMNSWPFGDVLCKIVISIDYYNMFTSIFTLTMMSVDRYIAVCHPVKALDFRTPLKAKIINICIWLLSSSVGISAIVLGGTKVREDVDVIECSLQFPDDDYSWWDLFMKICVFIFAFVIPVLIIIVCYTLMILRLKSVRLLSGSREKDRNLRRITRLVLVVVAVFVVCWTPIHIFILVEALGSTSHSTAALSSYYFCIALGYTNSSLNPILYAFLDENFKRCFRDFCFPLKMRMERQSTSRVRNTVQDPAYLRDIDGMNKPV
ASSAY_DETAILS: Filtration binding assay, kappa opioid receptor (U69593-H3 ligand)
CONDITION_PARAMETERS: read-out: Kappa (κ) IC50
ASSAY_READOUT: IC50 (nM)
Field format: number, assumed nM, no unit text.

* O=C1N(CC(O)CNCCN2CCOCC2)c2ccccc2C12CCN(CC1CCCCCCC1)CC2 (centres unmarked) [Compound 61] | 100

Now look at this entry.
## Task Missing value: IC50, Kappa (κ) opioid receptor (Homo sapiens, UniProt P41145), entry CC(C)c1ccc2c(c1)C1(CCN(CC3CCCCCCC3)CC1)C(=O)N2C [Compound 7] . Fill in?
## Result 97

---

TESTED_SYSTEM: Mu (μ) opioid receptor (Homo sapiens, UniProt P35372)
Sequence (P35372 whole entry): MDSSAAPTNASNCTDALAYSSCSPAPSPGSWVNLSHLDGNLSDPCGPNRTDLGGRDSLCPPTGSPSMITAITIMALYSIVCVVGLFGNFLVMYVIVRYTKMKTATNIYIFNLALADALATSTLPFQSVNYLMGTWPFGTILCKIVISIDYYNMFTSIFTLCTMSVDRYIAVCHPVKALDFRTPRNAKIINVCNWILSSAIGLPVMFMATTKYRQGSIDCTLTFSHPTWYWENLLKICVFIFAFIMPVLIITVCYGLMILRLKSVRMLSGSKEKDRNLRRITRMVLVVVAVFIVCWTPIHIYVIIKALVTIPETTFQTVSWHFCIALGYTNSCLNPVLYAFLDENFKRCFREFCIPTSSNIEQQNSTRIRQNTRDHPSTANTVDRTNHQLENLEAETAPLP
ASSAY_DETAILS: Filtration binding assay, mu opioid receptor (Damgo-H3 ligand)
CONDITION_PARAMETERS: read-out: Mu (μ) IC50
Listing: pIC50 of selected compounds
Bear in mind: pIC50 is minus log10 of a mol/L concentration; give just that figure.

- CC(C)c1ccc2c(c1)C1(CCN(CC3CCCCCCC3)CC1)C(=O)N2C: 6.01

Now look at this entry.
## Task Missing value: pIC50, Mu (μ) opioid receptor (Homo sapiens, UniProt P35372), entry O=C1N(CC(O)CNCCN2CCOCC2)c2ccccc2C12CCN(CC1CCCCCCC1)CC2 (centres unmarked) . Fill in?
## Result 6.30

---

# human nociceptin receptor (ORL-1) (Homo sapiens, UniProt P41146): IC50 values follow
# Sequence (P41146 whole entry): as the sequence (P41146 whole entry) above
Reply with the number, then its unit.

• CCN(Cc1ccc(C)cc1)CC(O)CN1C(=O)C2(CCN(CC3CCCCCCC3)CC2)c2ccccc21 (stereo not drawn) [Compound 62] = 320 nM
• CCN1C(=O)C2(CCN(CC3CCCCCCC3)CC2)c2ccc(OC)cc21 [Compound 55] = 2750 nM
• CC(=O)OCCN1C(=O)C2(CCN(CC3CCCCCCC3)CC2)c2ccccc21 [Compound 46] = 180 nM

## Task Missing value: IC50, human nociceptin receptor (ORL-1) (Homo sapiens, UniProt P41146), entry O=C1N(CC2CO2)c2ccccc2C12CCN(CC1CCCCCCC1)CC2 (stereo not drawn) [Compound 60] . Fill in?
## Result 83 nM

## Task Missing value: IC50, human nociceptin receptor (ORL-1) (Homo sapiens, UniProt P41146), entry Cc1ccc2c(c1)N(C)C(=O)C21CCN(CC2CCCCCCC2)CC1 [Compound 58] . Fill in?
## Result 150 nM

## Task Missing value: IC50, human nociceptin receptor (ORL-1) (Homo sapiens, UniProt P41146), entry O=C1N(CC(O)CNCCN2CCOCC2)c2ccccc2C12CCN(CC1CCCCCCC1)CC2 (stereo not drawn) [Compound 61] . Fill in?
## Result 120 nM

## Task Missing value: IC50, human nociceptin receptor (ORL-1) (Homo sapiens, UniProt P41146), entry CN1C(=O)C2(CCN(CC3CCCCCCC3)CC2)c2ccc(O)cc21 [Compound 19] . Fill in?
## Result 2680 nM

## Task Missing value: IC50, human nociceptin receptor (ORL-1) (Homo sapiens, UniProt P41146), entry COC(=O)CN1C(=O)C2(CCN(Cc3ccc(Cl)cc3)CC2)c2ccccc21 [Compound 39] . Fill in?
## Result 710 nM

## Task Missing value: IC50, human nociceptin receptor (ORL-1) (Homo sapiens, UniProt P41146), entry Cc1cccc2c1C1(CCN(CC3CCCCCCC3)CC1)C(=O)N2C [Compound 59] . Fill in?
## Result 37 nM

## Task Missing value: IC50, human nociceptin receptor (ORL-1) (Homo sapiens, UniProt P41146), entry CC(C)c1ccc2c(c1)C1(CCN(CC3CCCCCCC3)CC1)C(=O)N2C [Compound 7] . Fill in?
## Result 7400 nM

## Task Missing value: IC50, human nociceptin receptor (ORL-1) (Homo sapiens, UniProt P41146), entry COC(=O)CN1C(=O)C2(CCN(Cc3ccc4ccccc4c3)CC2)c2ccccc21 [Compound 32] . Fill in?
## Result 250 nM

## Task Missing value: IC50, human nociceptin receptor (ORL-1) (Homo sapiens, UniProt P41146), entry CN1C(=O)C2(CCN(CC3CCCCCCC3)CC2)c2cc(C(F)(F)F)ccc21 [Compound 8] . Fill in?
## Result 600 nM

## Task Missing value: IC50, human nociceptin receptor (ORL-1) (Homo sapiens, UniProt P41146), entry COC(=O)CN1C(=O)C2(CCN(CC3CCCCCC3)CC2)c2ccccc21 [Compound 1] . Fill in?
## Result 510 nM

## Task Missing value: IC50, human nociceptin receptor (ORL-1) (Homo sapiens, UniProt P41146), entry COC(=O)CN1C(=O)C2(CCN(Cc3ccc(C(F)(F)F)cc3)CC2)c2ccccc21 [Compound 11] . Fill in?
## Result 880 nM

---

TESTED_SYSTEM: human nociceptin receptor (ORL-1) (Homo sapiens)
Listing: pIC50 of selected compounds
Bear in mind: pIC50 is minus log10 of a mol/L concentration; give just that figure.

## Task Missing value: pIC50, human nociceptin receptor (ORL-1) (Homo sapiens), entry "COC(=O)CN1C(=O)C2(CCN(CC3CCCCCCC3)CC2)c2ccccc21" . Fill in?
## Result 7.00

## Task Missing value: pIC50, human nociceptin receptor (ORL-1) (Homo sapiens), entry "CN1C(=O)C2(CCN(CC3CCCCCCC3)CC2)c2cc(F)ccc21" . Fill in?
## Result 7.64

## Task Missing value: pIC50, human nociceptin receptor (ORL-1) (Homo sapiens), entry "COc1ccc2c(c1)N(C)C(=O)C21CCN(CC2CCCCCCC2)CC1" . Fill in?
## Result 5.62

## Task Missing value: pIC50, human nociceptin receptor (ORL-1) (Homo sapiens), entry "Cc1ccc2c(c1)C1(CCN(CC3CCCCCCC3)CC1)C(=O)N2C" . Fill in?
## Result 6.35

## Task Missing value: pIC50, human nociceptin receptor (ORL-1) (Homo sapiens), entry COC(=O)CN1C(=O)C2(CCN(CC3CCC(C(C)(C)C)CC3)CC2)c2ccccc21 (stereo not drawn) . Fill in?
## Result 7.00

---

TESTED_SYSTEM: Mu (μ) opioid receptor (Homo sapiens)
ASSAY_DETAILS: Filtration binding assay, mu opioid receptor (Damgo-H3 ligand)
CONDITION_PARAMETERS: 1 D4 cell line membrane, Damgo-H3 ligand; calculated mean where tested more than once; read-out: Mu (μ) IC50
pIC50: −log10 of the molar value.
Outcome label depends on pIC50 relative to 6: at/above gives satisfied, below gives not satisfied.

• COc1ccc2c(c1)N(C)C(=O)C21CCN(CC2CCCCCCC2)CC1 = not satisfied
• CCN1CC2(CCN(CC3CCCCCCC3)CC2)c2ccc(OC)cc21 = not satisfied
• CCCN1C(=O)C2(CCN(CC3CCCCCCC3)CC2)c2cc(C(C)C)ccc21 = not satisfied
• Cc1ccc2c(c1)N(C)C(=O)C21CCN(CC2CCCCCCC2)CC1 = not satisfied
• CC(=O)N[C@@H](CSCC(O)CN1C(=O)C2(CCN(CC3CCCCCCC3)CC2)c2ccccc21)C(=O)O (stereo partly drawn) = satisfied

// switching to the query molecule
## Task Test whether the molecule O=C1N(CC2CCCCC2)c2ccccc2C12CCN(C1Cc3cccc4cccc1c34)CC2 (stereo not drawn) records pIC50 of 6 or higher.
## Result not satisfied
